target-under-test: recombinant human Myt1 (Homo sapiens (Human))
Sequence (Q99640 whole entry): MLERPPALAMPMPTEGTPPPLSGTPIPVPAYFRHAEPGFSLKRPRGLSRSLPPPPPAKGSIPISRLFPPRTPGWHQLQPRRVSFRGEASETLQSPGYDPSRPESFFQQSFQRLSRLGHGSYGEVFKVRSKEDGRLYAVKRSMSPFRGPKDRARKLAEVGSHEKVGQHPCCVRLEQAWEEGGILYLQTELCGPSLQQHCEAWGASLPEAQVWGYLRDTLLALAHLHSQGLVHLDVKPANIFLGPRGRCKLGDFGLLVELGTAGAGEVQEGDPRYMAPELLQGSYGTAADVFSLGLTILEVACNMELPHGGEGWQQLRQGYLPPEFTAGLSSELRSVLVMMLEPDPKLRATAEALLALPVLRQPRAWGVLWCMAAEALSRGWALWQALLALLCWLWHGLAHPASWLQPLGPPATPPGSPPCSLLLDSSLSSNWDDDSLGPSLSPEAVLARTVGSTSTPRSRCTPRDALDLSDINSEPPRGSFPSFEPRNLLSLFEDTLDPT
assay-explanation: Myt1 enzymatic assay (ADP-Glo kinase assay)
experimental-parameters: 18 nM enzyme, 10 uM ATP
pIC50: −log10 of the molar value.
quantity-name: pIC50

Worked examples, 6 compounds total:
CC(=O)N1CCN(c2cnc3c(n2)c(C(N)=O)c(N)n3-c2c(C)ccc(O)c2C)CC1 [Compound 87]	> 8.00
Cc1ccc(O)c(C)c1-n1c(N)c(C(N)=O)c2nc(-c3c[nH]cn3)cnc21 [Compound 65]	> 8.00
Cc1cc2c(C(N)=O)c(N)c(-c3c(C)ccc(O)c3C)n2cc1C [Compound 336]	7.42
Cc1ccc(O)c(C)c1-n1c(N)c(C(N)=O)c2cc(S(=O)(=O)C3CC3)cnc21 [Compound 311]	> 8.00
Cc1ccc(O)c(C)c1-n1c(N)c(C(N)=O)c2nc(N3CCCC3)cnc21 [Compound 85]	> 8.00
CCN(CC)c1cnc2c(n1)c(C(N)=O)c(N)n2-c1c(C)ccc(O)c1C [Compound 88]	> 8.00

Ask: Read off the recorded pIC50 for Cc1ccc2[nH]ncc2c1-n1c(N)c(C(N)=O)c2nccnc21 [Compound 329]
Reply: 5.88

Ask: Read off the recorded pIC50 for NC(=O)c1c(N)n(-c2cccc3[nH]ncc23)c2nccnc12 [Compound 277]
Reply: 5.86

Ask: Read off the recorded pIC50 for Cc1ccc(O)c(C)c1-n1c(N)c(C(N)=O)c2nc(N3CCC(C(=O)N(C)C)CC3)cnc21 [Compound 80]
Reply: > 8.00

The reported measurements were obtained from patent US12435090B2.
